ASSAY_TARGET: T1, hOX40-EC-His (human, UniProt P43489 29-214)
T1 construct: extracellular domain; bought protein; also called recombinant human OX40 antigen protein; human OX40 extracellular segment antigen; not shown: 6 His label
T1 sequence (looked up): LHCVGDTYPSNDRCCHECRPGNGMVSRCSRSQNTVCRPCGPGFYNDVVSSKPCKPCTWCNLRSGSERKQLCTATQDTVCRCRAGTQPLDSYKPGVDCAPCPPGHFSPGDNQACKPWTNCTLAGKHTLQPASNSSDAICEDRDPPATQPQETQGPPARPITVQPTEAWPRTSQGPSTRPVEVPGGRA
PROCEDURE_SUMMARY: ELISA, supernatant 1:100, coated hOX40-EC-His
MEASURE_NAME: IgG ELISA (1:100) (OD650)
# unit: OD650 | format: bare number

Examples with their reported IgG ELISA (1:100) follow.
BINDER	OBS_VALUE
21F3-11 (antibody, V domains shown, hybridoma antibody, tested as culture supernatant) VH: QVQLQESGPGLVKPSGTLSLTCAVSGGSISSSNWWSWVRQPPGKGLEWIGEIYHGGSTNYNPSLKSRITISVDKSKNQFSLKLSSVTAADTAMYYCATLPGYSSGWFDSWGQGTLVTVSS VL: EIVLMQSPGTLSLSPGERATLSCRASQSVSSSYLAWYQQKPGQAPSLLIYGASNRASGIPDRFSGSGSGTDFTLTITRLEPEDFAVYYCQQYGSSPLTFGGGTRVEIKR	1.9
1F10-12-3 (antibody, V domains shown, hybridoma antibody, tested as culture supernatant) VH: QVQLQESGPGLVKPSGTLSLTCAVSGGSISNSNWWNWVRQPPGRGLEWIGEIYHSGSTNYNPSLKSRVTISVDKSKNQFSLKLTSVTAADTAVYYCARYSTPFFDYWGQGNLVTVSS VL: DIQMTQSPSSLSASVGDRVTITCRASQSISNYLNWYQQKQGKAPKLLIYGASSLQSGVPSRFSGSGSGTDFTLTINSLQPEDFATYCCQQSYNNPLTFGGGTKVEIKR	2.3
28E3-4 (antibody, V domains shown, hybridoma antibody, tested as culture supernatant) VH: QVQLQESGPGLVKPSGTLSLTCAVSGGSISRSNWWTWVRQSPGKGLEWIGEIYHSGNTNYNPSLKSRVTISLDKSKNQFSLKLSSVTAADTAVYYCASSGSLYMDVWGKGTTVTVSS VL: DIQMTQSPSSLSASVGDRVTISCRASQSTSSYLNWYQQKPGKAPRLLIYGASSLQSGVPSRFSGSGSGTDFILTISSLQPEDFATYYCQQSYSIPITFGQGTRLEIKR	2.1
55H6-6 (antibody, V domains shown, hybridoma antibody, tested as culture supernatant) VH: QVQLVQSGAEVKKPGASVKVSCKASGYTFTSYGISWVRQAPGQGLEWMGWISAYNGHTNYAQKLQGRVTMTTDTSTNTAYMELWSLRSDDTAVYYCTSDYGDYWGQGTLVTVSS VL: DVVVTQSPLSLPVTLGQPASISCRSSQSLVYSDGNTNLYWFQQRPGQSPRRLIYQVSNRDSGVPDRFSGSGSGTDFTLKISRVEAEDVGVYYCMQGTHWPPALTFGGGTEVEIKR	0.1
4D9-12 (antibody, V domains shown, hybridoma antibody, tested as culture supernatant) VH: QVQLQESGPGLVKPSGTLSLTCAVSGGSISSSNWWSWVRQPPGKGLEWIGEIYHSGNTIYNPSLKSRVTISLDKSKNQFSLKLSSVTAADTAVYYCASSGSLYMDVWGKGTTVTVSS VL: DIQMTQSPSSLLSSVGDRVTISCRASHGSSTYLNWYQQKPGKAPRLLIYGASSLQSGVPSRFSGSGFGTDFILTISSMQPEDFATYYCQQSYSIPITFGQGTRLEIKR	2.3

For the next question, use this binder.
Supply IgG ELISA (1:100) value. Item: 35B8-6 (antibody, V domains shown, hybridoma antibody, tested as culture supernatant) VH: QITLKESGPTLVKPTQTLTLTCTFSGFSLSTSAVNVGWIRQPHGKALEWLALIFWNDDKRYSPSLKNRLTITKDTSKDQVVLTMSNMDPVDTATYYCAQYNWNSSFDYWGQGTLVTVSS VL: DIQMTQSPSSLSASLGDRVTITCQASQDINTYLNWYQQKPGKAPKVLIYDASNLETGVPSRFSGSGSGTDFTFTISSLQPEDIATFYCQQYDNLITFGGGTKVEIKR
2.1
